# System Under Test: Cytochrome P450 3A4 (Homo sapiens, UniProt P08684)
# Sequence (P08684 whole entry): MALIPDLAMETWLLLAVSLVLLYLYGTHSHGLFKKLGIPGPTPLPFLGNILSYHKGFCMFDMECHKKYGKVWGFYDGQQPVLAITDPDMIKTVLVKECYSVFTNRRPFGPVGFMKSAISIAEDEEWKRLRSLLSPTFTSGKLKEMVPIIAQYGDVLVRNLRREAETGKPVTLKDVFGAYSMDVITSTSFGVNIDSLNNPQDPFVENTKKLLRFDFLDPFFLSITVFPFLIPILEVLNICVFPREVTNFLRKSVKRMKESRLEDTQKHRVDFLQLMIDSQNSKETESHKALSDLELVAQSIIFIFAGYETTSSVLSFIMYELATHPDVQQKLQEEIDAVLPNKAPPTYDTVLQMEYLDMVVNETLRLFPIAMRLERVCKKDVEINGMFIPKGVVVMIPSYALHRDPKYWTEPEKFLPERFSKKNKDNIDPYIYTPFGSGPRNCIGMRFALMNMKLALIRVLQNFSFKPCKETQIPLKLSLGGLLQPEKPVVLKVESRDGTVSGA
# Assay Protocol: Inhibition of CYP3A4 (unknown origin)
# Assay type: ADME
pIC50: −log10 of the molar value.
Quantity: pIC50

**Query** Hello, I am looking for reported pIC50 with Cytochrome P450 3A4 (Homo sapiens, UniProt P08684) for CCC[C@H]1N(C(=O)c2cnccc2C(F)(F)F)CCC[C@@]1(Oc1ccc(C(F)(F)F)cc1)C(=O)N1CCC(Oc2cccc(C(=O)O)n2)CC1 . Could you help?
**Result** < 4.30

----------
# System Under Test: E3 ubiquitin-protein ligase Mdm2 (Homo sapiens)
# Sequence (Q00987 whole entry): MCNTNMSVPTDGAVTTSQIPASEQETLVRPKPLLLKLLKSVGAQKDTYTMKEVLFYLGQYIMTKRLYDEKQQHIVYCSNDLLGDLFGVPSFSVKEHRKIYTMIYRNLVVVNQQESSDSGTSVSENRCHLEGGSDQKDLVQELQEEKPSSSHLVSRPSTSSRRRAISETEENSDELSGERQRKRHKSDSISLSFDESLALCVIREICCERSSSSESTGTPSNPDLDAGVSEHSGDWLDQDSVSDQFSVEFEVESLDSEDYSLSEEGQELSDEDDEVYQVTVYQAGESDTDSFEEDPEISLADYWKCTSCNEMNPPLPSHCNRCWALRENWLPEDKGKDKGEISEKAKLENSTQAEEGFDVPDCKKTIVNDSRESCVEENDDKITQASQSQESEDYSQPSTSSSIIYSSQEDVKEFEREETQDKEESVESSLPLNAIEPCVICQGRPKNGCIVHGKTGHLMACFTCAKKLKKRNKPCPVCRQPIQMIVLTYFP
# Assay Protocol: Binding affinity to human MDM2 assessed as inhibition of interaction with p53 by fluorescence polarization assay
Mark yes only for IC50 values smaller than 2000 nM; exact matches and larger values are no.

**Query** Take the molecule CCC[C@H]1N(C(=O)c2cnccc2C(F)(F)F)CCC[C@@]1(Oc1ccc(C(F)(F)F)cc1)C(=O)N1CCC(Cc2ccc(C)cc2)CC1 and say whether its IC50 is less than 2000 nM.
**Result** no

**Query** Take the molecule CCC[C@H]1N(C(=O)c2cnccc2C(F)(F)F)CCC[C@@]1(Oc1ccc(C(F)(F)F)cc1)C(=O)N1CCC(Oc2ccccc2Cl)CC1 and say whether its IC50 is less than 2000 nM.
**Result** no

**Query** Take the molecule CCC[C@H]1N(C(=O)c2cnccc2C(F)(F)F)CCC[C@@]1(Oc1ccc(C(F)(F)F)cc1)C(=O)N1CCC(Oc2cccc(Br)n2)CC1 and say whether its IC50 is less than 2000 nM.
**Result** yes

**Query** Take the molecule CCC[C@H]1N(C(=O)c2cnccc2C(F)(F)F)CCC[C@@]1(Oc1ccc(C(F)(F)F)cc1)C(=O)N1CCC(Oc2ncccc2C#N)CC1 and say whether its IC50 is less than 2000 nM.
**Result** no

**Query** Take the molecule CCC[C@H]1N(C(=O)c2cnccc2C(F)(F)F)CCC[C@@]1(Oc1ccc(C(F)(F)F)cc1)C(=O)N1CCC(Sc2ccc(C)cc2)CC1 and say whether its IC50 is less than 2000 nM.
**Result** no

**Query** Take the molecule CCC[C@H]1N(C(=O)c2cnccc2C(F)(F)F)CCC[C@@]1(Oc1ccc(C(F)(F)F)cc1)C(=O)N1CCC(Oc2cnccn2)CC1 and say whether its IC50 is less than 2000 nM.
**Result** yes

**Query** Take the molecule CCC[C@H]1N(C(=O)c2cnccc2C(F)(F)F)CCC[C@@]1(Oc1ccc(C(F)(F)F)cc1)C(=O)N1CCC(Oc2cncnc2)CC1 and say whether its IC50 is less than 2000 nM.
**Result** yes

----------
Hi there, I'd appreciate the recorded IC50 for every entry that follows.
# System Under Test: UniProt Q00987
# Assay Protocol: Binding affinity to human MDM2 assessed as inhibition of interaction with p53 by fluorescence polarization assay
Record the result as number plus unit.

**Query** Hello, I am looking for reported IC50 with UniProt Q00987 for CCC[C@H]1N(C(=O)c2cnccc2C(F)(F)F)CCC[C@@]1(Oc1ccc(C(F)(F)F)cc1)C(=O)N1CCC(Oc2cccc(C(=O)O)n2)CC1 . Could you help?
**Result** 42 nM

**Query** Hello, I am looking for reported IC50 with UniProt Q00987 for CCC[C@H]1N(C(=O)c2cnccc2C(F)(F)F)CCC[C@@]1(Oc1ccc(C(F)(F)F)cc1)C(=O)N1CCC(Oc2ccc(CN)cn2)CC1 . Could you help?
**Result** 801 nM

**Query** Hello, I am looking for reported IC50 with UniProt Q00987 for CCC[C@H]1N(C(=O)c2cnccc2C(F)(F)F)CCC[C@@]1(Oc1ccc(C(F)(F)F)cc1)C(=O)N1CCC(Oc2ccc(C#N)cc2)CC1 . Could you help?
**Result** 1920 nM

**Query** Hello, I am looking for reported IC50 with UniProt Q00987 for CCC[C@H]1N(C(=O)c2cnccc2C(F)(F)F)CCC[C@@]1(Oc1ccc(C(F)(F)F)cc1)C(=O)N1CCC(Oc2ccncn2)CC1 . Could you help?
**Result** 376 nM

**Query** Hello, I am looking for reported IC50 with UniProt Q00987 for CCC[C@H]1N(C(=O)c2cnccc2C(F)(F)F)CCC[C@@]1(Oc1ccc(C(F)(F)F)cc1)C(=O)N1CCC(Oc2cc(CN)ccn2)CC1 . Could you help?
**Result** 4030 nM

**Query** Hello, I am looking for reported IC50 with UniProt Q00987 for CCC[C@H]1N(C(=O)c2cnccc2C(F)(F)F)CCC[C@@]1(Oc1ccc(C(F)(F)F)cc1)C(=O)N1CCC(Oc2cccc(C(N)=O)n2)CC1 . Could you help?
**Result** 111 nM
